target: Monoglyceride lipase (Homo sapiens); test: Inhibition of MAGL in human U937 cells assessed as reduction in [3H]glycerol formation using [1,2,3-3H]2-OG as substrate incubated for 15 mins by liquid scintillation spectroscopy; assay type: cell-based, U-937
Sequence (Q99685 whole entry): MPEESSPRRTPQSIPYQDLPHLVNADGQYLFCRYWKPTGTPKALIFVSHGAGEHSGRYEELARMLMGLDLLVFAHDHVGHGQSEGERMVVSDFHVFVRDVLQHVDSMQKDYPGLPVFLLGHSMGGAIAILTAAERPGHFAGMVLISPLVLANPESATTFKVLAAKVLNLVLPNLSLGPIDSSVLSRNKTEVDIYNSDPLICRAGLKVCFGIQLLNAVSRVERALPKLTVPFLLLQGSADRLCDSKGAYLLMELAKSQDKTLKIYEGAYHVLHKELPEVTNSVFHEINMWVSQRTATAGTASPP
experimentalReadout: pIC50
Answers are plain numbers, as −log10 of the molar value.

Guide cases for pIC50, answers given:
>>> assayresult("O=C(c1ccc(Cc2ccccc2)cc1)C1CCN(C(=O)c2cc(O)ccc2F)CC1")
6.07
>>> assayresult("O=C(c1ccc(Cc2ccccc2)cc1)C1CCN(C(=O)c2cc(O)c(F)cc2F)CC1")
5.91
>>> assayresult("O=C(c1ccc(Sc2ccccc2)cc1)C1CCN(C(=O)c2cc(O)ccc2F)CC1")
6.06

Okay, now this molecule:
// query For the record O=C(c1ccc(Sc2ccccc2)cc1)C1CCN(C(=O)c2cc(O)c(F)cc2F)CC1 , what value of pIC50 is listed for Monoglyceride lipase (Homo sapiens)?
// result 6.25
